# system: PD-1/PD-L1 (Homo sapiens, UniProt Q9NZQ7)
# Sequence (Q9NZQ7 19-238 limits assumed): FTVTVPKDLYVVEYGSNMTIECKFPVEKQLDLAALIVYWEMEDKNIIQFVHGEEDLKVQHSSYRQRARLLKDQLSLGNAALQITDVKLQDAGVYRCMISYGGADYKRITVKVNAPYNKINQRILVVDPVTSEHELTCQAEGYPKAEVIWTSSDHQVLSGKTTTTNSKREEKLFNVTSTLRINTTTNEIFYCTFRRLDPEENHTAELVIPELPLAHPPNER
# measurement-description: PD-1/PD-L1 biochemical protein-protein interaction assay (ALPHA)
# run-conditions: 0.3 nM His tagged PD-L1, 2.5 nM biotinylated Fc-PD-1, 60 minutes at 25° C., read-out: IC50 PD-L1-PD-1 Alpha IC50-mono PD-L1-fcP-D1
pIC50: −log10 of the molar value.
Reported pIC50 by item:
measurement-name: pIC50

>>> number("COc1cc(OCc2cccc(-c3cccc(COc4ccc(CNC[C@@H](O)CC(=O)O)c(OC)n4)c3C)c2C)ccc1CNC[C@@H](O)CC(=O)O [Example 27]")
8.64
>>> number("COc1nc(-c2cccc(-c3cccc(-c4ccc5cc(CN(C)C)[nH]c5c4)c3Cl)c2Cl)ccc1CNC[C@@H]1CCC(=O)N1 [Example 607]")
8.93
>>> number("COc1nc(O[C@H]2CCc3c(-c4cccc5c4CC[C@@H]5Oc4ccc(CNC[C@@H](O)CC(=O)O)c(OC)n4)cccc32)ccc1CNC[C@@H](O)CC(=O)O [Example 11]")
9.40
>>> number("N#Cc1cncc(COc2nc(OCc3cccc(-c4cccc(-c5ccc(OCCNCCO)cc5)c4Cl)c3Cl)c(Cl)cc2CNC[C@@H](O)CC(=O)O)c1 [Example 561]")
9.27
>>> number("COc1nc(O[C@H]2CCc3c(-c4cccc(-c5ccc(C6=NCCN6)c(OC)n5)c4Cl)cccc32)c(Br)cc1CN1CC2(C1)CN(C(C)=O)C2 [Example 775]")
9.56
>>> number("COc1nc(-c2cccc(-c3cccc4c3CC[C@@H]4Oc3nc(OC)c(CN4CC[C@H](C(=O)O)C4)cc3Cl)c2Cl)ccc1CNC[C@H]1C[C@H](O)C1 [Example 712]")
10.19
>>> number("Cc1c(COc2cc(OCc3cncc(C#N)c3)c(CN[C@@](C)(CO)C(=O)O)cc2Cl)cccc1-c1cccc(-c2ccc(CN[C@H]3CCCNC3=O)cc2)c1C [Example 573]")
9.81
>>> number("Cc1c(COc2cc(OCc3cncc(C#N)c3)c(CN[C@@](C)(CO)C(=O)O)cc2Cl)cccc1-c1cccc(-c2ccc(C3=NCCN3)cc2)c1C [Example 503]")
10.19
>>> number("COc1cc(-c2cccc(-c3cccc4c3CC[C@@H]4Oc3ccc(CN[C@@](C)(CO)C(=O)O)c(OC)n3)c2Cl)ccc1C1=NCCN1 [Example 777]")
10.19
>>> number("CC(=O)NCCNCc1cc(Cl)c(OCc2cccc(-c3cccc(COc4cc(OCc5cncc(C#N)c5)c(CNCCNC(C)=O)cc4Cl)c3C)c2C)cc1OCc1cncc(C#N)c1 [Example 70]")
7.97
>>> number("COc1nc(-c2cccc(-c3cccc4c3CC[C@@H]4Oc3nc(OCc4cncc(C#N)c4)c(CN[C@@](C)(CO)C(=O)O)cc3Cl)c2Cl)ccc1C1=NCCN1 [Example 745]")
10.19
>>> number("COc1nc(O[C@H]2CCc3c(-c4cccc(-c5cnc(CN6CC(C)(CO)C6)c(OC)n5)c4Cl)cccc32)c(Cl)cc1CN1CC[C@H](C(=O)O)C1 [Example 707]")
10.19
